Source: patent US20240270821A1

- Target system: human GLP1-R (Homo sapiens)
- Sequence (P43220 24-463): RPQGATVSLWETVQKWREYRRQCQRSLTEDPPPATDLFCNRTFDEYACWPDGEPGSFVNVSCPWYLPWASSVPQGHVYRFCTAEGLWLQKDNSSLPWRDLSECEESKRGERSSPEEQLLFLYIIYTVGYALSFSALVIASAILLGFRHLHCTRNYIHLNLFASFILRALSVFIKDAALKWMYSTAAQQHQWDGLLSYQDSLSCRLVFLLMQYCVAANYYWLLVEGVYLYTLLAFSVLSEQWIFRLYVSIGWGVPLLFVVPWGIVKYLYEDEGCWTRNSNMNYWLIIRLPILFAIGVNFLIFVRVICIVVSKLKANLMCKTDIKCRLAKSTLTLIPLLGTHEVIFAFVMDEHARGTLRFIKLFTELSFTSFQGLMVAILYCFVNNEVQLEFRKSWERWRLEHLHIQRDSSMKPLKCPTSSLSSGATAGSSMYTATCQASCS
- Test protocol: GLP1-R internalization assay in HEK293 cells
- Format: cell-based
- Condition: normalized to maximum concentration of GLP-1 (100%)
Starred links: 1 amine or outer side, 2 acyl side, 3 side chain; linkers in the order of their positions; H or OH if unused. Non-standard residues stand in square brackets, D forms with d. Groups on a side chain read outwards from the residue. No end group written: not given here. *: point of attachment. C20 diacid = O=C(O)CCCCCCCCCCCCCCCCCCC(=O)*; C18 diacid = O=C(O)CCCCCCCCCCCCCCCCC(=O)*; γGlu = O=C(O)[C@H](CCC(=O)[*:2])N[*:1]; 4Pal = N[C@@H](Cc1ccncc1)C(=O)O; αMeL = CC(C)C[C@](C)(N)C(=O)O; Orn = NCCC[C@H](N)C(=O)O; AEEA = NCCOCCOCC(=O)O; Aib = CC(C)(N)C(=O)O
Result type: Internalization % TOP (%)
// return numeric value only (unit: %, not printed)

Look over these answered cases.
Requested field: Internalization % TOP. Item: H-Y[Aib]QGTFTSD[4Pal]SK[αMeL]LDKK([AEEA-γGlu-C18 diacid])AQ[Aib]AFIEYLIA[Aib]GESSGAPPPSGS-NH2 [Example 285]
73.6

Requested field: Internalization % TOP. Item: H-Y[Aib]QGTFTSDYS[Orn][αMeL]LDKK([AEEA-γGlu-C18 diacid])AQ[Aib]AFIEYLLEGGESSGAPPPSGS-NH2 [Example 359]
74.4

Requested field: Internalization % TOP. Item: H-Y[Aib]QGTFTSDFSK[αMeL]LDKK([AEEA-γGlu-C20 diacid])AQ[Aib]AFIEYLLAGGPSSGEPPPSSG-NH2 [Example 7]
76.3

Requested field: Internalization % TOP. Item: Y[Aib]QGTFTSDFS[Orn][αMeL]LDKK([AEEA-γGlu-C18 diacid])AQ[Aib]AFIEYLLAGGPSSGEPPPEGE-NH2 [Example 98]
49.3

---
Requested field: Internalization % TOP. Item: H-Y[Aib]QGTFTSDFS[Orn][αMeL]LDKK([AEEA-γGlu-C18 diacid])AQ[Aib]AFIEYLLAGGPSSGAPPPSGS-NH2 [Example 95]
49.3
